Tested on: SNB-75 CNS
TEST_PROTOCOL: NCI tumour cell line growth inhibition, 48 h
Consider the following molecules and their measured TGI readings.

Take a look at these entries with their results.
// query Tell me its TGI on SNB-75 CNS: "N#Cc1c(-c2ccccc2)/c(=C\Nc2cccc(C(F)(F)F)c2)c(=O)n2c1nc1ccccc12"
// result > 100 µM

// query State recorded TGI with SNB-75 CNS, entry CC1(C(=O)O)CCC[C@@]2(C)C1CC[C@@]1(C)c3cocc3CCC21 (stereo partly drawn) , no comment.
// result > 100 µM

Please turn your attention to the following entry.
// query Lab note: SNB-75 CNS assay, enter TGI for "O=C1/C(=C/c2ccc(O)c(O)c2)CCC/C1=C\c1ccc(O)c(O)c1" here
// result 12.9 µM
